# Target Of Assay: T1, recombinant human OX40-Fc (human, UniProt P43489 29-214)
# T1 construct: also called rh-OX40-Fc; human OX40 hFC (R & D systems)
# T1 sequence: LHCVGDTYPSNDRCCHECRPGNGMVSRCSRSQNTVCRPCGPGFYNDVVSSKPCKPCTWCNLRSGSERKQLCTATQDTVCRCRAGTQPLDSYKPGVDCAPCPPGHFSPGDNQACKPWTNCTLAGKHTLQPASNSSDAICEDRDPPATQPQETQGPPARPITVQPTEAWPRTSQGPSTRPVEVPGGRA
# Protocol Summary: BLI, VHH-His on anti-His tips, OX40 hFc in solution;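 further: kinetics recorded at 30 °C in PBS pH 7.2, with 200 s of association followed by dissociation monitored in PBS lacking the OX40 protein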
Reported pKd is given for each of the following binders.
In textbook form, pKd equals minus log to base ten of the concentration in mol/L.

pgXX88-SZ-15 (VHH, not shown: small tags and cut ends) VHH: QVQLVESGGGLVQPGGSLRLSCSPSEGAFKMLTTGWFRQVLGKEREFVSAISWGGGATYYADSVKGRFTVSRDNAKNTVYLQMNSLKPEDTAVYYCAVDTGNGVATNIRSQSRYDYWGQGTQVTVSS; 9.32

Query block: Using the record for pgXX88-83 (VHH, not shown: small tags and cut ends) VHH: EVQLVESGGGLVQTGDSLRLSCAALGGTPSTYAIGWFRQAAGKELQFVARITWNGDTWYADALPGRVAISRDNAKKTVYLQMNNLKPEDTAEYICAADVSEFRDIPNRDSRANYRYWGQGTQVTVSS , report its pKd.
Result block: 10.28

Query block: Using the record for pgXX88-2 (VHH, not shown: small tags and cut ends) VHH: EVQLVESGGGLVQPGGSLRLSCAASGFAFGDIPMMWVRQAPGKGREWVSSISADSATQSYADSVQDRFTISRDNAKNTLYLEMHILKPEDTAVYYCATTDRPPPGQGTQVTVSS , report its pKd.
Result block: 9.31

Query block: Using the record for pgXX88-SZ-4 (VHH, not shown: small tags and cut ends, also called ppXX88-SZ-4) VHH: QVQLVESGGGLAQPGSSLRLSCTASGTVFSILSATWFRQAPGKAHEARELVAFISSDGVSMHADSVKGRFTISRDNAASTVYLQMDNLQPEDTAVYFCKLSNSMMSLEYWGRGTQVTVSS , report its pKd.
Result block: 9.73
